test system: 786-0; experiment: NCI tumour cell line growth inhibition, 48 h
Activity calls are given as the source filed them. No stated cut-off is given here; in the data, active = GI50 up to about 1.1 µM and inactive = higher.
Choose one outcome from this list and give only that: yes (1) for active, no (0) for inactive

Record request — test call for CC(NC1=NCCO1)c1ccsc1 (stereo not drawn) no (0)

Record request — test call for "OCCN(CCO)c1cccc(N(CCO)CCO)c1" no (0)

Record request — test call for "CCOC(=O)c1ccc(/N=C2\S/C(=C\C(=S)Nc3ccccc3)N(c3ccccc3)\C2=N/c2ccc(C(=O)OCC)cc2)cc1" no (0)

Record request — test call for CC1=C(C(=O)OCCc2ccc([N+](=O)[O-])cc2)C(c2ccccc2[N+](=O)[O-])C(C(=O)OC(C)C)=C(C)N1 (stereo not drawn) no (0)

----------
The reader will find reported GI50 values listed item by item below.
system: HCT-116; assay: NCI tumour cell line growth inhibition, 48 h
Calls of active or inactive are those of the source. Rule as the data show it: active = GI50 up to about 1.1 µM and inactive = higher.

# annotated cases, reported GI50 shown
{"columns": ["compound", "GI50"],
 "data": [
  ["NNC(=O)C(=O)N/N=C(\\CCC(=O)Nc1ccc(Cl)cc1)Cc1nc2ccccc2s1", "28.1 µM (inactive)"],
  ["Cc1cnc2c(c1C)C(=O)c1ccccc1C2=O", "36.1 µM (inactive)"],
  ["c1ccc2c(c1)CCc1c(-c3ccncc3)n[nH]c1-2", "22.2 µM (inactive)"],
  ["Cc1c(C#N)c2nc3ccccc3n2c(=O)/c1=C/Nc1ccc(Cl)cc1", "16.6 µM (inactive)"],
  ["O=C1CC(c2ccc([N+](=O)[O-])cc2)C2(C(=O)NC(=S)NC2=O)C(c2ccc([N+](=O)[O-])cc2)C1 (configuration not stated)", "16.7 µM (inactive)"],
  ["CC1=NN(c2nc(N)nc(C/C(N)=N/O)n2)C(C)(C)C1", "> 100 µM (inactive)"]
]}

Param item: NC(CCSCC(F)(F)F)C(=O)O (configuration not stated) ; param system: HCT-116; output GI50: > 100 µM (inactive)

----------
test system: SK-MEL-5; test: NCI tumour cell line growth inhibition, 48 h
The source made the active and inactive calls. Cut-off read from the data, not from the text of the source: active = GI50 up to about 1.1 µM and inactive = higher.
readoutLabel: GI50

# annotated cases, reported GI50 shown
{"columns": ["compound", "measurementTarget", "GI50"],
 "data": [
  ["CCOC(=O)C1=c2[nH]c3cccc4cccc(c43)n2C(=O)CC1c1ccccc1 (centres undefined)", "SK-MEL-5", "> 100 µM (inactive)"],
  ["O=C(O)CCc1nc2c(n1-c1ccccc1)C(=O)c1ccccc1C2=O", "SK-MEL-5", "> 100 µM (inactive)"],
  ["O=[N+]([O-])C(/C=C(\\Cl)[N+](=O)[O-])=C(Nc1ccccc1)Nc1ccccc1", "SK-MEL-5", "13.3 µM (inactive)"],
  ["CC1CN=C(Nc2ccc(S(N)(=O)=O)cc2)S1 (centres undefined)", "SK-MEL-5", "> 100 µM (inactive)"],
  ["CCN(CC)CCNc1ccc2nc(C)n3c4ccc(OC)cc4c(=O)c1c23", "SK-MEL-5", "5.57 µM (inactive)"]
]}

Given item O=C1c2ccc3ccccc3c2CCC1N1CCCCC1 (centres undefined) , the value recorded as its GI50 is 17 µM (inactive)

----------
system: SK-MEL-2; assay: NCI tumour cell line growth inhibition, 48 h
Activity calls are given as the source filed them. Cut-off read from the data, not from the text of the source: active = GI50 up to about 1.1 µM and inactive = higher.
Choose one outcome from this list and give only that: Yes (active), No (inactive)

Below, 7 compounds whose answers are already recorded.
{"columns": ["compound", "measurementTarget", "assignedClass"],
 "data": [
  ["Cc1c(C#N)c2nc3ccccc3n2c(=O)/c1=C/Nc1ccc(Cl)cc1", "SK-MEL-2", "No"],
  ["Cc1cc(NS(=O)(=O)c2ccc(/N=N/c3c(O)c(C(=O)O)cc4ccccc34)cc2)nc(C)n1", "SK-MEL-2", "No"],
  ["Cc1ccc(NC(=O)c2nc(S)nc(N)c2-c2ccccc2C)cc1C", "SK-MEL-2", "No"],
  ["Cc1csc(-n2nc(C)cc2C)n1", "SK-MEL-2", "No"],
  ["CC(=O)c1sc2c(c1OC(=O)c1ccco1)c(=O)n(-c1ccccc1)c(=S)n2-c1ccccc1", "SK-MEL-2", "No"],
  ["C/C(=N\\NC(=N)N)C(CN(CC(C)C)CC(C)C)C(=O)Nc1ccc(C)cc1C (stereo not drawn)", "SK-MEL-2", "No"],
  ["COCOc1c(C(OCOC)c2cnc(Sc3ccccc3)n2C)ccc(OC)c1OC (stereo not drawn)", "SK-MEL-2", "No"]
]}

In the following, a different compound is considered.
Record request — test call for "Cc1cccc2c(NCCN(C)C)c3cccc(C(=O)NCCN(C)C)c3nc12" Yes
